System: velvetleaf
Assay: Test B pre/postemergence velvetleaf
Format: in vivo, Abutilon theophrasti
Details: Preemergence, Rate 125 g/ha; scale 0 to 10 (0 no effect, 10 complete control)
I'd appreciate it if you could supply Plant response rating, Velvetleaf values for the items below.
Please give only the number in your answer, with no unit.

Plant response rating, Velvetleaf in this record for "Cc1ccccc1Cn1c(=O)on(C(=O)N(c2ccc(F)cc2)C(C)C)c1=O" : 0

The compound identified as "Cc1ccccc1-n1c(=O)on(C(=O)N(c2ccc(C#N)cc2)C(C)C)c1=O" registered its Plant response rating, Velvetleaf at 0

In plain terms, "Cc1ccccc1-n1c(=O)on(C(=O)N(c2ccc(F)cc2)C(C)C)c1=O" has a documented Plant response rating, Velvetleaf of 0

Recorded result, "Cc1ccccc1-n1c(=O)on(C(=O)N(C2=CCOCC2)C(C)C)c1=O" , Plant response rating, Velvetleaf: 0

The reported value for "CC(C)N(C(=O)n1oc(=O)n(-c2ccc(OC(F)(F)F)cc2)c1=O)C1=CCOCC1" in terms of Plant response rating, Velvetleaf is 0

The measured Plant response rating, Velvetleaf associated with "CCN(CC)C(=O)n1oc(=O)n(-c2ccc(OC)cc2)c1=O" reads 0

----------
System: pigweed
Assay: Test B pre/postemergence pigweed
Format: in vivo, Amaranthus retroflexus
Conditions: Rate 250 g/ha; Postemergence
Task for the reader: assign each of the following compounds its reported Plant response rating (0 to 10; 0 is no effect, 10 is complete control), Redroot pigweed.

Item: CCCCCC#CCn1c(=O)on(C(=O)N(c2ccc(F)cc2)C(C)C)c1=O [Compound 254] | Plant response rating (0 to 10; 0 is no effect, 10 is complete control), Redroot pigweed: 3

Form field Plant response rating (0 to 10; 0 is no effect, 10 is complete control), Redroot pigweed, entry CCC(CC)N(C(=O)n1oc(=O)n(-c2ccccc2C)c1=O)c1ccc(F)cc1 [Compound 193] : 0

response.value for Cc1ccccc1-n1c(=O)on(C(=O)N(c2ccc(Cl)cc2F)C(C)C)c1=O [Compound 195] (field: Plant response rating (0 to 10; 0 is no effect, 10 is complete control), Redroot pigweed) = 2

Per the records, this compound ( CC(C)N(C(=O)n1oc(=O)n(CC2(C)COC2)c1=O)c1ccc(F)cc1 [Compound 226] ) has Plant response rating (0 to 10; 0 is no effect, 10 is complete control), Redroot pigweed equal to 0

Plant response rating (0 to 10; 0 is no effect, 10 is complete control), Redroot pigweed for CC(C)N(C(=O)n1oc(=O)n(Cc2ccco2)c1=O)c1ccc(F)cc1 [Compound 207] is 0

----------
Task for the reader: assign each of the following compounds its reported Bedstraw plant response rating.
Tested on: bedstraw
Assay: Test B pre/postemergence bedstraw
Assay type: in vivo, Galium aparine
Details: Rate 125 g/ha, Postemergence; scale 0 to 10
// return just the number, without any unit appended

Entry under test: CC(C)N(C(=O)n1oc(=O)n(C(C)C(=O)c2ccccc2)c1=O)c1ccc(F)cc1 (stereo not shown) [Compound 260] . Its Bedstraw plant response rating was 7

Lookup result for CC(C)N(C(=O)n1oc(=O)n(CC#C[Si](C)(C)C)c1=O)c1ccc(F)cc1 [Compound 213] ; measured Bedstraw plant response rating: 3

GET /value?item= Cc1ccccc1-n1c(=O)on(C(=O)N(c2ccc(Cl)cc2F)C(C)C)c1=O [Compound 195] &field=Bedstraw plant response rating returns 2

Please fill in: Bedstraw plant response rating reported for CCC(CC)N(C(=O)n1oc(=O)n(-c2ccccc2C)c1=O)c1ccc(F)cc1 [Compound 193] = 0

----------
Tested on: velvetleaf
Test: Test B pre/postemergence velvetleaf
Type: in vivo, Abutilon theophrasti
Conditions: Postemergence, Rate 62 g/ha; scale 0 to 10, 0 is no effect, 10 is complete control
measure_name: Plant response rating, Velvetleaf
Respond using a number only.

For reference, reported Plant response rating, Velvetleaf for "CC(C)N(C(=O)n1oc(=O)n(CCCC#N)c1=O)c1ccc(F)cc1" stands at 5

The reported value for "CCOC(Cn1c(=O)on(C(=O)N(c2ccccc2)C(C)C)c1=O)OCC" in terms of Plant response rating, Velvetleaf is 0

Note to self: Plant response rating, Velvetleaf recorded for CC(C)N(C(=O)n1oc(=O)n(CC2CCCCO2)c1=O)c1ccc(F)cc1 (centres unmarked) was 0

Plant response rating, Velvetleaf reading for "C#CCn1c(=O)on(C(=O)N(c2ccc(F)cc2)C(C)C)c1=O" : 0

Recorded result, CCOC(CC)n1c(=O)on(C(=O)N(c2ccc(Cl)cc2)C(C)C)c1=O (centres unmarked) , Plant response rating, Velvetleaf: 0

----------
System: corn
Assay: Test B pre/postemergence corn
Type: in vivo, Zea mays
Conditions: Postemergence, Rate 500 g/ha; scale of 0 to 10 where 0 is no effect and 10 is complete control
Description: […] At the same time, these crop and weed species were also treated with postemergence applications of test chemicals formulated in the same manner. […] Treated plants and controls were maintained in a greenhouse for twelve to sixteen days, after which all species were compared to controls and visually evaluated. […]
measure_name: Plant response rating, Corn
Keep the answer to the number alone.

Known value: corn Plant response rating, Corn of the compound CC(C)N(C(=O)n1oc(=O)n(CC(C)[N+](=O)[O-])c1=O)c1ccccc1 (stereo not drawn) equals 0

Plant response rating, Corn for corn with input CC(=O)C(C)n1c(=O)on(C(=O)N(c2ccccc2)C(C)C)c1=O (stereo not drawn) equals 4

Entry "CC(C)N(C(=O)n1oc(=O)n(CC(=O)C2CCC2)c1=O)c1ccccc1" , tested on corn, has a reported Plant response rating, Corn of 0

Fill in: corn Plant response rating, Corn for "CC(C)N(C(=O)n1oc(=O)n(CCCCF)c1=O)c1ccccc1" = 6

Item: "CC(Cl)=CCn1c(=O)on(C(=O)N(c2ccccc2)C(C)C)c1=O" | System: corn | Plant response rating, Corn: 0

Item "CCOCn1c(=O)on(C(=O)N(c2ccccc2)C(C)C)c1=O" was tested on corn; the reported Plant response rating, Corn is 8

----------
System: purple nutsedge
Experiment: Test B pre/postemergence purple nutsedge
Assay type: in vivo, Cyperus rotundus
Conditions: Rate 125 g/ha, Postemergence; scale of 0 to 10 where 0 is no effect and 10 is complete control
Give measured Nutsedge plant response rating for each item. Keep answers brief.
Output spec: single numeric token, no unit.

"CC(C)N(C(=O)n1oc(=O)n(CCCN(C)C)c1=O)c1ccc(F)cc1" has a reported Nutsedge plant response rating of 0

In plain terms, CC(C)N(C(=O)n1oc(=O)n(C2CCCCO2)c1=O)c1ccc(F)cc1 (centres unmarked) has a documented Nutsedge plant response rating of 0

Data point: "CC(C)N(C(=O)n1oc(=O)n(CCCF)c1=O)c1ccc(F)cc1" ; Nutsedge plant response rating = 6

The molecule C=CCn1c(=O)on(C(=O)N(c2ccc(F)cc2)C(C)C(=O)OCC)c1=O (centres unmarked) showed Nutsedge plant response rating equal to 0

Form: molecule = "Cc1cccc(C)c1-n1c(=O)on(C(=O)N(c2ccc(Cl)cc2Cl)C2CCC2)c1=O" ; Nutsedge plant response rating = 0

----------
System: blackgrass
Test: Test B pre/postemergence blackgrass
Type: in vivo, Alopecurus myosuroides
Conditions: Postemergence, Rate 125 g/ha; scale of 0 to 10 where 0 is no effect and 10 is complete control
Protocol: […] At the same time, these crop and weed species were also treated with postemergence applications of test chemicals formulated in the same manner. […] Treated plants and controls were maintained in a greenhouse for twelve to sixteen days, after which all species were compared to controls and visually evaluated. […]
measure_name: Plant response rating, Blackgrass

Kindly note: blackgrass, CC(C)N(C(=O)n1oc(=O)n(CC2CCCCO2)c1=O)c1ccc(F)cc1 (stereo not shown) [Compound 624] , Plant response rating, Blackgrass value reported: 5

Response field Plant response rating, Blackgrass (blackgrass) for item CC(=O)OCC(CCl)n1c(=O)on(C(=O)N(c2ccc(F)cc2)C(C)C)c1=O (stereo not shown) [Compound 596] : 0

Lab note: compound CCc1nc(C)c(C(C)n2c(=O)on(C(=O)N(c3ccc(F)cc3F)C(C)C)c2=O)s1 (stereo not shown) [Compound 589] tested on blackgrass; recorded Plant response rating, Blackgrass was 0

The compound CCC(C)n1c(=O)on(C(=O)N(c2ccc(F)cc2)C(C)C)c1=O (stereo not shown) [Compound 613] on blackgrass: Plant response rating, Blackgrass was 9

----------
Consider the following compounds; for each one, report its Morningglory plant response rating.
Tested on: morningglory
Assay: Test B pre/postemergence morningglory
Type: in vivo, Ipomoea hederacea
Details: Postemergence, Rate 125 g/ha; scale 0 to 10, 0 is no effect, 10 is complete control
Field format: numeric only.

# Morningglory plant response rating of "CCOC(=O)C=C(Cn1c(=O)on(C(=O)N(c2ccc(F)cc2F)C(C)C)c1=O)OCC" = 0

Noted for "CCc1nc(C)c(Cn2c(=O)on(C(=O)N(c3ccc(Cl)cc3)C(C)C)c2=O)s1" : its Morningglory plant response rating reads 3

Documented Morningglory plant response rating of "CCOCn1c(=O)on(C(=O)N(c2ccccc2)C(C)C)c1=O" : 6

Summary for this compound, "CC(C)N(C(=O)n1oc(=O)n(CC2CC2)c1=O)c1ccccc1" : Morningglory plant response rating is 10
